Target: Gag-Pol polyprotein [484-582,I497V,V499I,E519D,R541K,D544E,Q553K,A555V,G557S,I568V,L574M,L573M] (Human immunodeficiency virus, UniProt Q9QBY3, A555V/D544E/E519D/G557S/I497V/I568V/L573M/L574M/Q553K/R541K/V499I)
Construct: 484-582
Experiment: Inhibition Assay
Assign labels as follows, please: label 1 for Ki below 2 nM; label 0 for Ki equal to or exceeding 2 nM.

The examples below pair each entry with its known result.
>>> discrete_label("CC[C@H](C)CN(C[C@@H](O)[C@H](Cc1ccccc1)NC(=O)c1cccc(O)c1)S(=O)(=O)c1ccc(-c2ccno2)s1")
"label 0"
>>> discrete_label("O=C(N[C@@H](Cc1ccccc1)[C@H](O)CN(CCCc1ccccc1)S(=O)(=O)c1ccc2ncsc2c1)c1cccc(O)c1")
"label 0"
>>> discrete_label("COc1ccc(S(=O)(=O)N(CC2CCCCC2)C[C@@H](O)[C@H](Cc2ccccc2)NC(=O)c2cccc(O)c2)cc1")
"label 0"

In: Ki under 2 nM? Item: O=C(N[C@@H](Cc1ccccc1)[C@H](O)CN(CC1CCCCC1)S(=O)(=O)c1ccc2ncsc2c1)c1cccc(O)c1
Out: label 0

In: Next record, please: CC[C@H](C)CN(C[C@@H](O)[C@H](Cc1ccccc1)NC(=O)C(NC(C)=O)[C@@H](C)CC)S(=O)(=O)c1ccc2ncsc2c1 (some centres not stated)
Out: label 1

In: Next record, please: COc1ccc(S(=O)(=O)N(CCCc2ccccc2)C[C@@H](O)[C@H](Cc2ccccc2)NC(=O)c2cccc(O)c2)cc1
Out: label 0

In: Next record, please: CC[C@H](C)[C@H](NC(C)=O)C(=O)N[C@@H](Cc1ccccc1)[C@H](O)CN(CC(C)C)S(=O)(=O)c1ccc(OC)cc1
Out: label 1

* * *

Molecular target: Gag-Pol polyprotein [489-892] (Human immunodeficiency virus, UniProt P12497)
Construct: 489-892
Assay: Drug Susceptibility Assay
pEC50: −log10 of the molar value.
pEC50 of 8 or higher: rule met. Under 8: rule not met.

>>> discrete_label("COc1ccc(S(=O)(=O)N(CC2CCCCC2)C[C@@H](O)[C@H](Cc2ccccc2)NC(=O)c2cccc(O)c2)cc1")
"rule not met"
>>> discrete_label("CC[C@H](C)CN(C[C@@H](O)[C@H](Cc1ccccc1)NC(=O)C(NC(C)=O)[C@@H](C)CC)S(=O)(=O)c1ccc2ncsc2c1 (stereo not given in full)")
"rule met"
>>> discrete_label("O=C(N[C@@H](Cc1ccccc1)[C@H](O)CN(CC1CCCCC1)S(=O)(=O)c1ccc2ncsc2c1)c1cccc(O)c1")
"rule not met"
>>> discrete_label("CC(C)CN(C[C@@H](O)[C@H](Cc1ccccc1)NC(=O)O[C@H]1CCOC1)S(=O)(=O)c1ccc(N)cc1")
"rule met"

In: Has CC[C@H](C)[C@H](NC(C)=O)C(=O)N[C@@H](Cc1ccccc1)[C@H](O)CN(CC(C)C)S(=O)(=O)c1ccc(OC)cc1 a recorded pEC50 greater than or equal to 8?
Out: rule met

* * *

Assign pKi to each entry below.
Target: HIV-1 protease (Human immunodeficiency virus)
Answers are plain numbers, as −log10 of the molar value.

Use these answered entries as a reference point.
>>> observed_value("COc1ccc(S(=O)(=O)N(CC2CCCCC2)C[C@@H](O)[C@H](Cc2ccccc2)NC(=O)c2cccc(O)c2)cc1")
9.26
>>> observed_value("CC[C@H](C)CN(C[C@@H](O)[C@H](Cc1ccccc1)NC(=O)c1cccc(O)c1)S(=O)(=O)c1ccc(-c2ccno2)s1")
8.48
>>> observed_value("COc1ccc(S(=O)(=O)N(CCCc2ccccc2)C[C@@H](O)[C@H](Cc2ccccc2)NC(=O)c2cccc(O)c2)cc1")
9.36

Next compound, pKi to be filled in.
In: Bench note: what pKi did O=C(N[C@@H](Cc1ccccc1)[C@H](O)CN(CC1CCCCC1)S(=O)(=O)c1ccc2ncsc2c1)c1cccc(O)c1 show?
Out: 9.89
